Source: ChEMBL document CHEMBL2202954

- System: NCI-H322M
- assay name: Cytotoxicity against human NCI-H322M cells assessed as cellular growth at 10 uM by SRB assay
- Type: functional
Would you mind telling me the reported Activity of each entry?
The figure you give is taken to be in %; do not add the unit.

Lookup: Give its Activity value. Item: "O=S(=O)(Oc1ccc(-c2cnc3ccccc3n2)cc1)c1ccc2ccccc2c1"
Found: 137.19

Lookup: Note, next up: "CC1(C)CC(=O)c2cc3c(N)c(C(=O)Nc4ccc(F)cc4)sc3nc2C1"
Found: 110.83

Lookup: Note, next up: "O=c1/c(=C/c2ccccc2Cl)sc2nc(-c3ccccc3)nn12"
Found: 96.56

Lookup: Note, next up: "O=C(Nc1nc2ccc(Cl)cc2s1)c1ccc(Cl)cc1"
Found: 111.02

Lookup: Note, next up: "Cc1cccc(-c2nc(-c3cccs3)no2)c1"
Found: 95.9

Lookup: Note, next up: "O=C(Nc1nc2ccccc2s1)c1ccc(F)cc1"
Found: 92.49

Lookup: Note, next up: "O=S(=O)(Oc1ccc(-c2cnc3ccccc3n2)cc1)c1ccccc1"
Found: 107.81

Lookup: Note, next up: "Cc1ccccc1NC(=O)c1sc2nc3c(cc2c1N)C(=O)CCC3"
Found: 71.39

Lookup: Note, next up: "c1ccc(-c2nc(-c3cccs3)no2)cc1"
Found: 122.94

Lookup: Note, next up: "Cc1ccc(C(=O)/C=C2/Nc3ccc(C)cc3OC2=O)cc1"
Found: 106.47

Lookup: Note, next up: "CC1(C)CC(=O)c2cc3c(N)c(C(=O)NCc4ccccc4)sc3nc2C1"
Found: 101.83

---

- System: MOLT-4
- assay name: Cytotoxicity against human MOLT4 cells assessed as cellular growth at 10 uM by SRB assay
- Type: functional
measurement kind: Activity
Your answer should be a number followed by the unit of measure.

Lookup: Test system MOLT-4; read-out Activity; what value for "Cc1ccc2c(c1)N/C(=C/C(=O)c1ccc(Cl)cc1)C(=O)O2" ?
Found: 86.91%

Lookup: Note, next up: "Clc1cccc(-c2nc(-c3cccs3)no2)c1"
Found: 96.35%

Lookup: Note, next up: "COc1ccc2[nH]c(C(=O)NCc3ccccc3)cc2c1"
Found: 83.12%

Lookup: Note, next up: "O=C(NCc1ccc(Cl)cc1)c1[nH]c2ccccc2c1Cl"
Found: 88.19%

Lookup: Note, next up: "O=c1/c(=C/c2ccccc2Cl)sc2nc(-c3ccccc3)nn12"
Found: 69.85%

Lookup: Note, next up: "COc1ccc(Cl)cc1C(=O)Nc1nc2ccc(Cl)cc2s1"
Found: 95.65%

---

- Tested on: SK-MEL-28
- assay name: Cytotoxicity against human SK-MEL-28 cells assessed as cellular growth at 10 uM by SRB assay
- Format: functional
measurement kind: Activity (%)
The figure you give is taken to be in %; do not add the unit.

Lookup: Give its Activity value. Item: "Cc1cccc(-c2nc(-c3cccs3)no2)c1"
Found: 109.6

Lookup: Note, next up: "Cc1c(OCC(=O)c2ccccc2)ccc2c1oc(=O)c1ccccc12"
Found: 113.56

Lookup: Note, next up: "Nc1c(C(=O)Nc2ccc(Cl)c(Cl)c2)sc2nc(-c3cccs3)ccc12"
Found: 97.42

Lookup: Note, next up: "O=C(Nc1nc2ccccc2s1)c1ccc(F)cc1"
Found: 113.63

Lookup: Note, next up: "N#Cc1ccc(-n2nnc3ccccc32)cc1C#N"
Found: 104.11

Lookup: Note, next up: "O=C(NCCc1ccccc1)c1cc2cccc([N+](=O)[O-])c2[nH]1"
Found: 99.12

Lookup: Note, next up: "Clc1ccc(-c2nc(-c3cccs3)no2)cc1"
Found: 115.07

Lookup: Note, next up: "COc1cc(/C=c2/sc3nc4ccccc4n3c2=O)cc(I)c1O"
Found: 111.82

Lookup: Note, next up: "O=C(NCc1ccc(Cl)cc1)c1[nH]c2ccccc2c1Cl"
Found: 109.03

Lookup: Note, next up: "O=S(=O)(Oc1ccc(-c2cnc3ccccc3n2)cc1)c1ccccc1"
Found: 110.13

Lookup: Note, next up: "Cc1ccc(C2=N/C(=C\c3ccccc3)C(=O)O2)cc1"
Found: 105.81

Lookup: Note, next up: "Clc1ccc(-c2nc(-c3cccs3)no2)c(Cl)c1"
Found: 103.74

---

- Test system: SK-OV-3
- assay name: Cytotoxicity against human SKOV3 cells assessed as cellular growth at 10 uM by SRB assay
- Format: functional
measurement kind: Activity (%)
The figure you give is taken to be in %; do not add the unit.

Lookup: Give its Activity value. Item: "Cc1cc(C)c(NC(=O)c2sc3nc4c(cc3c2N)C(=O)CCC4)c(C)c1"
Found: 10.43

Lookup: Note, next up: "O=C(Nc1nc2ccc(Cl)cc2s1)c1ccc(Cl)cc1"
Found: 89.31

Lookup: Note, next up: "O=c1/c(=C/c2ccccc2)sc2nc(-c3ccc(Cl)cc3Cl)nn12"
Found: 98.1

Lookup: Note, next up: "O=c1/c(=C/c2ccccc2Cl)sc2nc(-c3ccccc3)nn12"
Found: 104.04

Lookup: Note, next up: "O=C(Nc1ccc(S(=O)(=O)Nc2nccs2)cc1)c1cccs1"
Found: 117.21

Lookup: Note, next up: "O=C(Nc1nc2ccc(Cl)cc2s1)c1ccc(Cl)cc1Cl"
Found: 105.26

Lookup: Note, next up: "COc1cccc(C(=O)Nc2nc3ccc(Cl)cc3s2)c1"
Found: 90.86

Lookup: Note, next up: "Clc1ccc(-c2nc(-c3cccs3)no2)cc1"
Found: 106.04

---

- System: SW-620
- assay name: Cytotoxicity against human SW620 cells assessed as cellular growth at 10 uM by SRB assay
- Format: functional
Would you mind telling me the reported Activity of each entry?
The figure you give is taken to be in %; do not add the unit.

Lookup: Give its Activity value. Item: "Cc1ccc(C2=N/C(=C\c3ccccc3)C(=O)O2)cc1"
Found: 102.61

Lookup: Note, next up: "N#Cc1ccc(-n2nnc3ccccc32)cc1C#N"
Found: 94.36

Lookup: Note, next up: "Cc1c(OCC(=O)c2ccccc2)ccc2c1oc(=O)c1ccccc12"
Found: 95.18

Lookup: Note, next up: "O=S(=O)(Oc1ccc(-c2cnc3ccccc3n2)cc1)c1ccc2ccccc2c1"
Found: 100.52

Lookup: Note, next up: "Cc1ccccc1NC(=O)c1sc2nc3c(cc2c1N)C(=O)CCC3"
Found: 25.37

Lookup: Note, next up: "O=C(NCc1cccnc1)c1sc2cc([N+](=O)[O-])ccc2c1Cl"
Found: 96.99

Lookup: Note, next up: "CC1(C)CC(=O)c2cc3c(N)c(C(=O)Nc4ccc(Cl)cc4)sc3nc2C1"
Found: 108.54

Lookup: Note, next up: "Nc1c(C(=O)Nc2cccc(Cl)c2)sc2nc3c(cc12)C(=O)CCC3"
Found: 31.28

Lookup: Note, next up: "Nc1c(C(=O)Nc2ccccc2)sc2nc3c(cc12)C(=O)CCC3"
Found: 27.25

Lookup: Note, next up: "O=S(=O)(Oc1ccc(-c2cnc3ccccc3n2)cc1)c1ccccc1"
Found: 99.76

Lookup: Note, next up: "O=c1/c(=C/c2ccc(Cl)cc2Cl)sc2nc(-c3ccccc3)nn12"
Found: 107.15

Lookup: Note, next up: "Cc1ccc(C(=O)/C=C2/Nc3ccc(C)cc3OC2=O)cc1"
Found: 120.18

Lookup: Note, next up: "CC1(C)CC(=O)c2cc3c(N)c(C(=O)Nc4ccccc4Cl)sc3nc2C1"
Found: 108.49

Lookup: Note, next up: "Clc1cccc(-c2nc(-c3cccs3)no2)c1"
Found: 91.04

Lookup: Note, next up: "O=C(Nc1nc2ccc(Cl)cc2s1)c1ccc(Cl)cc1"
Found: 103.76

Lookup: Note, next up: "O=C(NCCc1ccccc1)c1cc2cccc([N+](=O)[O-])c2[nH]1"
Found: 108.15

Lookup: Note, next up: "O=C(NCCc1ccccc1)c1[nH]c2ccccc2c1Cl"
Found: 92.61

Lookup: Note, next up: "Cc1ccc(NC(=O)c2sc3nc(-c4cccs4)ccc3c2N)cc1C"
Found: 101.23

Lookup: Note, next up: "CC1(C)CC(=O)c2cc3c(N)c(C(=O)Nc4ccc(F)cc4)sc3nc2C1"
Found: 106.24

Lookup: Note, next up: "COc1cccc(C(=O)Nc2nc3ccc(Cl)cc3s2)c1"
Found: 88.38

Lookup: Note, next up: "Cc1ccc(NC(=O)c2sc3nc4c(cc3c2N)C(=O)CCC4)cc1Cl"
Found: 112.63

Lookup: Note, next up: "Nc1c(C(=O)Nc2ccc(Cl)c(Cl)c2)sc2nc(-c3cccs3)ccc12"
Found: 105.33

Lookup: Note, next up: "COc1ccc(Cl)cc1C(=O)Nc1nc2ccc(Cl)cc2s1"
Found: 100.98
